Biological target: T1, FZD10 cysteine-rich domain (CRD), MYC-tagged and GPI-anchored on CHO cells (human, UniProt Q9ULW2 30-156, GPI anchor)
T1 construct: also called FZD10 CRD; CHO-myc-FZDGPI; not shown: MYC tag and GPI anchor signal
T1 sequence: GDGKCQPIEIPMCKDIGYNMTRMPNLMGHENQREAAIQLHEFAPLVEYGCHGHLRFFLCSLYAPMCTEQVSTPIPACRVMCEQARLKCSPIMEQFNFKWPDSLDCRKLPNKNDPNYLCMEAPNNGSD
Experiment: flow cytometry, CHO-CRD cells;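 note: flow cytometry of Fab binding to CHO cells overexpressing a Frizzled CRD, with binding defined as median fluorescence over twice that of CHO cells lacking any Frizzled CRD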
Readings of median fluorescence for the listed binders
Please give only the number in your answer, with no unit.

| binder | measured result |
| --- | --- |
| Fab-2903 (Fab, V domains shown, Fab; also called Fv-2903) VH: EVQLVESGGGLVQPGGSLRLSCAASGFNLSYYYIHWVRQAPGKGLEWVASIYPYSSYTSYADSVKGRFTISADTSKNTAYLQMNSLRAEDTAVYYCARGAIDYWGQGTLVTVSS V domain: DIQMTQSPSSLSASVGDRVTITCRASQSVSSAVAWYQQKPGKAPKLLIYSASSLYSGVPSRFSGSRSGTDFTLTISSLQPEDFATYYCQQWGGGSSLFTFG | 3.05 |

Query: So what does the record say about median fluorescence for Fab-2905 (Fab, V domains shown, Fab; also called Fv-2905) VH: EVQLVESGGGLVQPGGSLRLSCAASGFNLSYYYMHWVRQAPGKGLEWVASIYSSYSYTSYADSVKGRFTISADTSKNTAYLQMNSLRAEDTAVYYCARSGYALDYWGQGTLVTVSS VL: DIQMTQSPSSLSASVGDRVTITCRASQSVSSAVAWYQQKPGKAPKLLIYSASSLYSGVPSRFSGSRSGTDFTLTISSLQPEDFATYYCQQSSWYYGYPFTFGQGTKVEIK ?
Response: 3.31

Query: Fill in the blank: the reported median fluorescence of Fab-2912 (Fab, V domains shown, Fab; also called Fv-2912) VH: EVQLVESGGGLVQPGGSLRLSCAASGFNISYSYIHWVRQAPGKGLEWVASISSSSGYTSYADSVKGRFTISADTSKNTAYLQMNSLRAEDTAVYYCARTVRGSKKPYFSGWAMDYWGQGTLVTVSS VL: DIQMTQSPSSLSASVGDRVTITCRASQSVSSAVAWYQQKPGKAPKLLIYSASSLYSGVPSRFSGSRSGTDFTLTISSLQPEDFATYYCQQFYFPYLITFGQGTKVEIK is ____.
Response: 3.82
